Biological target: hCX3CR1 (Homo sapiens)
Test: Ga16 assay, CX3CR1 agonism, Ca2+ sensitive photo-protein readout (FLIPRTETRA)
Assay type: cell-based
Design: expressed in transfected cells; stably expresses a Ca2+ sensitive photo-protein
Conditions: human CX3CR1 cell line
pEC50: −log10 of the molar value.
parameter_measured: pEC50

A: CCN(CC)CC1(CNC(=O)c2cc3c(s2)CCCCCC3)CCCC1
B: CC(CNC(=O)c1cc2c(s1)CCCCCC2)CN(C)C (stereo not drawn)
QUERY: Larger number for pEC50: A , or B ? The response must carry the label of the picked entry.
RESULT: A

a: CC1(O)CCCN(CC2(CNC(=O)c3cc4c(s3)CCCCCC4)CCCC2)C1 (stereo not drawn)
b: CC1(O)CCCN(CC2(CNC(=O)c3cc4c(s3)CCCCCC4)CCC2)C1 (stereo not drawn)
QUERY: Larger number for pEC50: a , or b ? The response must carry the label of the picked entry.
RESULT: b
(b: 4.92, a: 4.71)

P: COC1(C)CCN(CC2(CNC(=O)c3cc4c(s3)CCCCCC4)CCCC2)CC1
Q: CN(C)CC(C)(C)CN(C)C(=O)c1cc2c(s1)CCCCCC2
QUERY: Field: lower recorded pEC50 (choose P or Q ) The response must carry the label of the picked entry.
RESULT: Q
(Q: 4.80, P: 5.07)

====

Biological target: UniProtKB P49238
Test: Ga16 assay, CX3CR1 agonism, Ca2+ sensitive photo-protein readout (FLIPRTETRA)
Type: cell-based
Parameters: expressed in transfected cells; stably expresses a Ca2+ sensitive photo-protein
Conditions: human CX3CR1 cell line
parameter_measured: EC50 (µM)

A: O=C(NCC1(CN2CCCC2)CCC1)c1cc2c(s1)CCCCCCC2 [Example 26]
B: O=C(NCC1(CN2CCCC2)CCCC1)c1cc2c(s1)CCCCCC2 [Example 5]
C: O=C(NCC1(CN2CCC(O)C2)CCC1)c1cc2c(s1)CCCCCC2 (stereo not drawn) [Example 66]
QUERY: Put the items in sequence by EC50, from largest down. State the ranking by listing the labels in the requested order.
RESULT: A, C, B

====

Target: hCX3CR1 (Homo sapiens)
Sequence (P49238 1-355): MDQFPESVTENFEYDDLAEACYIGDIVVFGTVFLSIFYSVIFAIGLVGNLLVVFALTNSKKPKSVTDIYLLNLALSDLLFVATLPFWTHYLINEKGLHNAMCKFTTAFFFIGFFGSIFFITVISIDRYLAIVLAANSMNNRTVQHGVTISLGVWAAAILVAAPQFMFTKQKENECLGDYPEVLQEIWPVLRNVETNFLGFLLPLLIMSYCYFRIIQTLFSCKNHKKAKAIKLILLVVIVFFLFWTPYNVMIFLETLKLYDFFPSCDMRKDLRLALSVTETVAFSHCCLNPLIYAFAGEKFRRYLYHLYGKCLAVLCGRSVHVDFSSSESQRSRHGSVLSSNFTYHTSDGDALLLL
Experiment: Ga16 assay, CX3CR1 agonism, Ca2+ sensitive photo-protein readout (FLIPRTETRA)
Type: cell-based
Parameters: expressed in transfected cells; stably expresses a Ca2+ sensitive photo-protein
Conditions: human CX3CR1 cell line
parameter_measured: EC50 (µM)

Solved cases (3 shown):
>  <compound>
CN(C)CC1(CNC(=O)c2cc3c(s2)CCCCCC3)CC(O)C1 (centres unmarked)

>  <assayed_system>
hCX3CR1 (Homo sapiens)

>  <reported_result>
9.4

$$$$
>  <compound>
CN(C)CC1(CNC(=O)c2cc3c(s2)CCCCCC3)CCOCC1

>  <assayed_system>
hCX3CR1 (Homo sapiens)

>  <reported_result>
14.3

$$$$
>  <compound>
O=C(NCC1(CN2CCC(O)CC2)CCCOC1)c1cc2c(s1)CCCCCC2 (centres unmarked)

>  <assayed_system>
hCX3CR1 (Homo sapiens)

>  <reported_result>
14.3

$$$$

a: O=C(NCC1(CN2CCCC2)CCCCC1)c1cc2c(s1)CCCCCC2
b: O=C(NCC1(CN2CCCC(O)C2)CCC1)c1cc2c(s1)CCCCCC2 (centres unmarked)
QUERY: Larger number for EC50: a , or b ? The response must carry the label of the picked entry.
RESULT: a
(a: 11 µM, b: 6 µM)

====

Biological target: rCX3CR1 (Rattus norvegicus)
Construct: stably expresses a Ca2+ sensitive photo-protein
Sequence (P35411 whole entry): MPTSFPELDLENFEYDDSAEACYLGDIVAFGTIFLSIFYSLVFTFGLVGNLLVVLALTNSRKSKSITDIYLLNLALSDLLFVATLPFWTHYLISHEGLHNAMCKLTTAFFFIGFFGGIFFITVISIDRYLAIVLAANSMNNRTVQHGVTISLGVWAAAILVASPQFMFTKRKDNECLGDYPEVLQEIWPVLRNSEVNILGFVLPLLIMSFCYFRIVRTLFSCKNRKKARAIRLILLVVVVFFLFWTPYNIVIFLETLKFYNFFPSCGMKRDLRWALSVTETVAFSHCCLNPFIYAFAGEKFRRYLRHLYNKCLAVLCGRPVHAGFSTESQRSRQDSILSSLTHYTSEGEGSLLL
Assay: Ga16 assay, CX3CR1 agonism, Ca2+ sensitive photo-protein readout (FLIPRTETRA)
Settings: rat CX3CR1 cell line
Protocol: Compounds (as well as stereoisomer(s) thereof and/or salt(s) thereof) were tested for CX3CR1 agonism in a cell based assay with fluorescent readout in Agonist Mode in dose response in quadruplicate with intra-plate modality). Buffers and reagents. […] Assay protocol. […] Twenty-four hours later, cells ere assayed for the response to various compounds using the Ca^2+ sensitive photo-protein stably expressed in the cells as readout. […]
parameter_measured: EC50 (µM)

Solved cases (10 shown):
>  <compound>
CC(CNC(=O)c1cc2c(s1)CCCCCC2)CN(C)C (stereo not shown)

>  <assayed_system>
rCX3CR1 (Rattus norvegicus)

>  <EC50, µM>
77.2

$$$$
>  <compound>
CC(C)(CNC(=O)c1cc2c(s1)CCCCCC2)CN1CCC(C)(O)CC1

>  <assayed_system>
rCX3CR1 (Rattus norvegicus)

>  <EC50, µM>
78.9

$$$$
>  <compound>
O=C(NCC1(CN2CCCC2)CCOCC1)c1cc2c(s1)CCCCCC2

>  <assayed_system>
rCX3CR1 (Rattus norvegicus)

>  <EC50, µM>
19.2

$$$$
>  <compound>
CC1(O)CCCN(CC2(CNC(=O)c3cc4c(s3)CCCCCC4)CCCC2)C1 (stereo not shown)

>  <assayed_system>
rCX3CR1 (Rattus norvegicus)

>  <EC50, µM>
19.4

$$$$
>  <compound>
COC1CCN(CC(C)(C)CNC(=O)c2cc3c(s2)CCCCCC3)CC1

>  <assayed_system>
rCX3CR1 (Rattus norvegicus)

>  <EC50, µM>
19.8

$$$$
>  <compound>
CC(C)(CNC(=O)c1cc2c(s1)CCCCCCC2)CN1CCCC1

>  <assayed_system>
rCX3CR1 (Rattus norvegicus)

>  <EC50, µM>
59.9

$$$$
>  <compound>
CN(CCO)CC1(CNC(=O)c2cc3c(s2)CCCCC3)CCCC1

>  <assayed_system>
rCX3CR1 (Rattus norvegicus)

>  <EC50, µM>
12.9

$$$$
>  <compound>
CC(C)(CNC(=O)c1cc2c(s1)CCCCCC2)CN1CCCC(O)C1 (stereo not shown)

>  <assayed_system>
rCX3CR1 (Rattus norvegicus)

>  <EC50, µM>
19.8

$$$$
>  <compound>
O=C(NCC1(CN2CCC(O)CC2)CCCC1)c1cc2c(s1)CCCCCC2

>  <assayed_system>
rCX3CR1 (Rattus norvegicus)

>  <EC50, µM>
9.4

$$$$
>  <compound>
CC1(C)CN(CC2(CNC(=O)c3cc4c(s3)CCCCCC4)CCC2)CCC1O (stereo not shown)

>  <assayed_system>
rCX3CR1 (Rattus norvegicus)

>  <EC50, µM>
16.8

$$$$

I: CN(C)CC(C)(C)CN(C)C(=O)c1cc2c(s1)CCCCCC2
II: CCCN(C)CC1(CNC(=O)c2cc3c(s2)CCCCCC3)CCCC1
QUERY: Larger number for EC50: I , or II ? The response must carry the label of the picked entry.
RESULT: I
(I: 44.5 µM, II: 14.6 µM)

P: O=C(NCC1(CN2CCCC2)CCC1)c1cc2c(s1)CCCCCCC2
Q: CCN(CC)CC1(CNC(=O)c2cc3c(s2)CCCCCC3)CCCC1
QUERY: Larger number for EC50: P , or Q ? The response must carry the label of the picked entry.
RESULT: P

P: CC1CCCC1(CNC(=O)c1cc2c(s1)CCCCCC2)CN1CCCC1 (stereo not shown)
Q: CC(C)(CNC(=O)c1cc2c(s1)CCCCCC2)CN1CCCCC1
QUERY: Field: lower recorded EC50 (choose P or Q ) The response must carry the label of the picked entry.
RESULT: Q
(Q: 16.9 µM, P: 40.9 µM)

A: O=C(NCC1(CN2CCC(O)C2)CCCC1)c1cc2c(s1)CCCCCC2 (single isomer, unassigned) [Example 64]
B: CN(CCO)CC1(CNC(=O)c2cc3c(s2)CCCCCC3)CCC1
C: O=C(NCC1(CN2CCC(O)CC2)CCOCC1)c1cc2c(s1)CCCCCC2
D: CN(C)CC(C)(C)CNC(=O)c1cc2c(s1)CCCCCC2
QUERY: Rank items: key EC50, increasing. State the ranking by listing the labels in the requested order.
RESULT: A, B, D, C

1: CC1(O)CCCN(CC2(CNC(=O)c3cc4c(s3)CCCCCC4)CCC2)C1 (stereo not shown)
2: O=C(NCC1(CN2CCCC2)CC(F)(F)C1)c1cc2c(s1)CCCCCC2
3: CN(C)CC1(CNC(=O)c2cc3c(s2)CCCCCC3)CCCCC1
QUERY: Rank items: key EC50, increasing. State the ranking by listing the labels in the requested order.
RESULT: 1, 3, 2
(1: 9.2 µM, 3: 13.7 µM, 2: 20.3 µM)

A: O=C(NCC1(CN2CCC(O)CC2)CCC1)c1cc2c(s1)CCCCCC2
B: O=C(NCC1(CN2CCC2)CCOCC1)c1cc2c(s1)CCCCCC2
QUERY: Field: lower recorded EC50 (choose A or B ) The response must carry the label of the picked entry.
RESULT: A

A: O=C(NCC1(CN2CCCC2)CCCOC1)c1cc2c(s1)CCCCCC2 (stereo not shown)
B: COC1CCCN(CC2(CNC(=O)c3cc4c(s3)CCCCCC4)CCC2)C1 (stereo not shown)
QUERY: Larger number for EC50: A , or B ? The response must carry the label of the picked entry.
RESULT: B
(B: 12.1 µM, A: 8.4 µM)

I: O=C(NCC1(CN2CCCC2)CC(O)C1)c1cc2c(s1)CCCCCC2 (stereo not shown)
II: COC1CCN(CC2(CNC(=O)c3cc4c(s3)CCCCCC4)CCC2)CC1
III: CC(C)(CNC(=O)c1cc2c(s1)CCCCCC2)CN1CCC(O)C(C)(C)C1 (stereo not shown)
IV: CN(C)CC1(CNC(=O)c2cc3c(s2)CCCCCC3)CCOCC1
QUERY: Rank items: key EC50, increasing. State the ranking by listing the labels in the requested order.
RESULT: II, I, IV, III
(II: 6.6 µM, I: 11.4 µM, IV: 27.9 µM, III: 63 µM)

Where do these numbers come from? They come from patent US12258337B2.
